These measurements were taken from PubChem BioAssay.

# Test system: Human papillomavirus type 1a protein E7 (residues 44-93)
# Test details: HPV1a E7 fragment binders on microarrays, primary screen, biochemical, small-molecule microarray, residues 44-93, 635 nm fluorescence (AID 1108);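 further: E7 fragment applied at 1 µg/mL in TBST for 1 h at 4 C; score combines spot fluorescence with its signal to noise ratio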
# Reported conditions: small-molecule microarray binding, fluorescence 635 nm; higher = more signal
composite z-score by entry:

# Compound, composite z-score
records = [
    ("CCOC(=O)C1CCCCN1 (stereo not drawn)", 0.728),
    ("CC1=C([C@H](O)CCc2ccccc2)[C@H](CO)[C@@H]2C(=O)N(C)C(=O)[C@@H]2C1", 0.305),
    ("CO[C@H]1O[C@H](CO)[C@@H](OC(=O)Nc2ccc3c(c2)OCO3)[C@H](OC(=O)c2cc3ccccc3[nH]2)[C@H]1OC(=O)c1cc2ccccc2[nH]1", -0.343),
    ("CC(C)(C)N1CC=CC23O[C@@H]4C=CCCOC(=O)C4[C@H]2C(=O)N(CCO)[C@@H]3C1=O (stereo partly drawn)", -0.282),
    ("COc1ccc(CCNC(=O)[C@@H]2c3ccccc3C(=O)N(Cc3cc(C(F)(F)F)cc(C(F)(F)F)c3)[C@H]2c2ccc(CO)cc2)cc1", 0.867),
    ("COCCOC(=O)N1C(=O)[C@@]2(c3ccccc31)[C@H](C(=O)N1CCN(c3ncccn3)CC1)[C@H]1C(=O)O[C@H](c3ccccc3)[C@H](c3ccccc3)N1[C@@H]2c1ccc(O)cc1", 0.97),
    ("NC(N)=NCCCn1cc(CNC(=O)[C@@H](N)Cc2ccccc2)nn1", -0.15),
    ("COc1ccc([Si](C)(C)[C@@H]2[C@@H](CC(=O)N(CCO)Cc3ccccc3)O[C@]3(C(=O)N(Cc4cccc(N5CCOC5=O)c4)c4ccccc43)[C@H]2C)cc1", -0.139),
    ("COC(=O)[C@@]1(Cc2ccccc2N=[N+]=[N-])N=C(c2ccc(OCCCO)cc2)O[C@H]1c1ccccc1N=[N+]=[N-]", 0.193),
    ("NC(=O)NCC#Cc1ccc2c(c1)[C@]1(C(=O)N2)[C@H](C(=O)NC[C@H](O)c2ccccc2)[C@H]2C(=O)O[C@H](c3ccccc3)[C@H](c3ccccc3)N2[C@@H]1c1ccc(OCCO)cc1", 1.25),
    ("CC(=O)NCCCC[C@@H]1NC(=O)[C@@H]2C[C@H](C(=O)NCCCC[N+](C)(C)C)[C@H](c3ccc(O)cc3)N2C1=O", 0.364),
    ("CCOC(=O)C[C@H]1[C@H](OC(=O)c2ccccc2-c2ccccc2)[C@@H](NC(=O)C2CCCCC2)c2cc(OCCCO)ccc2N1C(=O)Cc1ccc(OC)cc1", -0.312),
    ("CN(C)CCCCNC(=O)[C@@H]1C[C@@H]2C(=O)N[C@@H](Cc3ccccc3)C(=O)N2[C@@H]1c1cccc(OCCO)c1", 1.34),
    ("COC1OC[C@]2(C)[C@H]3C4=C(CN2C(=O)OC(C)(C)C)[C@H](C)C(CO)C(CO)C4CC[C@@H]13 (stereo partly drawn)", 1.22),
    ("CCOC(=O)c1ccc(NC(=O)O[C@H]2[C@H](OC(=O)Nc3ccc4c(c3)OCO4)[C@H](OC(=O)Nc3ccc4c(c3)OCO4)[C@@H](OC)O[C@@H]2CO)cc1", 1.03),
    ("CC(=O)c1ccc(C(O)C2C=CC3C(=O)N(c4ccccc4)C(=O)C3N2Nc2ccc(C#N)cc2)cc1 (stereo not drawn)", 0.909),
    ("O=C(NCC(F)(F)F)[C@@H]1c2ccccc2C(=O)N(Cc2cc(F)cc(C(F)(F)F)c2)[C@H]1c1ccc(CO)cc1", 0.463),
    ("O=C1C[C@@](C(=O)NCCN2CCOCC2)(c2ccc([N+](=O)[O-])cc2)[C@@H](c2ccc(CO)cc2I)N1C1CCCCC1", 1.18),
    ("COC(=O)[C@@]1(Cc2ccccc2)[C@@H]2C(=CC(=O)[C@H]2CC(=O)C(=O)N(C)C)CN1C(=O)c1ccccc1", 0.883),
    ("COCCOC(=O)N1C(=O)[C@@]2(c3cc(C#CC4=CCCCC4)ccc31)[C@H](c1ccccc1OCCO)N1[C@H](c3ccccc3)[C@H](c3ccccc3)OC(=O)[C@H]1[C@@H]2C(=O)N1CCCCCCC1", 1.38),
    ("O=C1NC(=O)C2C1C=CC(C(O)CCc1ccccc1)N2Nc1ccc(Cl)cc1Cl (stereo not drawn)", -0.72),
    ("CC(C)(C)OC(=O)CC[C@]1(C(=O)NCc2ccccc2)N=C(c2ccc(OCCCO)cc2)O[C@H]1c1ccccc1CN=[N+]=[N-]", 1.41),
    ("COc1ccc(NC(=O)O[C@H]2[C@H](OC(=O)Nc3ccccc3)[C@H](OC(=O)Nc3ccccc3)[C@@H](OC)O[C@@H]2CO)cc1", 1.25),
    ("Cc1ccc(S[C@]2(C(=O)NCC(F)(F)F)CC(=O)N(Cc3ccccc3)[C@@H]2c2ccc(CO)cc2I)cc1", 0.503),
    ("COC(=O)c1nc2oc1CC[C@@H](CO)NC(=O)N(C)Cc1cnnn1C[C@H](Cc1ccccc1)NC2=O", -0.367),
    ("COCCOC(=O)N1C(=O)[C@@]2(c3cc(C#CC4=CCCCC4)ccc31)[C@H](C(=O)N1CCCCCCC1)[C@H]1C(=O)O[C@H](c3ccccc3)[C@H](c3ccccc3)N1[C@@H]2c1ccc(O)cc1", 1.26),
    ("CCOC(=O)C1=C[C@@H](c2ccccc2)N(S(=O)(=O)c2ccc(C)cc2)[C@H]1c1ccccc1Cl", 1.32),
    ("Cc1ccc(S[C@]2(C(=O)NCC(F)(F)F)CC(=O)N(Cc3ccccc3C(F)(F)F)[C@@H]2c2ccc(CO)cc2I)cc1", -0.784),
]
